- tested-system: T1, huCD33-G69-Fc recombinant protein (human, UniProt P20138 18-259);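 also: scFvs from periplasmic extracts captured on biosensors via anti-V5 antibody, exposed to recombinant huCD33 variants for 2 min, 5 min dissociation, scored as binding, no binding or ambiguous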
- T1 construct: extracellular domain; also called CD33 R69G
- T1 sequence (P20138 18-259 R69G): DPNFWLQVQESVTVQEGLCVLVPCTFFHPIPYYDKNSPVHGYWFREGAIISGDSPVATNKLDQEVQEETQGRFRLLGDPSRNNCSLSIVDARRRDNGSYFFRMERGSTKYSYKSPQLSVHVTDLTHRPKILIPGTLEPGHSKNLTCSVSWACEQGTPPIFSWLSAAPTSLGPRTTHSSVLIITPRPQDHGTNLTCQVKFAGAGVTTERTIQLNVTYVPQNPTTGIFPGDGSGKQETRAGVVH
- experiment-notes: BLI
value-kind: binding result

# binder, experimental-value
data = [
    ("Polypeptide No. 36 (scFv, V domains shown, scFv) VH: QVQLVQSGAEVKKPGASVKVSCKASGGTFSSYAISWVRQAPGQGLEWLGIISPSGRSAGYGRKFQGRVTMTRDTSTSTVYMELSSLRSEDTAVYYCARTDYGGHKWYFDLWGRGTLVTVSS VL: DIQMTQSPSSLSASVGDRVTITCQASQGINNYLNWYQQKPGKAPKLLIYAASTLQRGVPSRFSGSGSGTDFTLTISSLQPEDFATYYCQQSYQTPLTFGGGTKVEIKR", "binds"),
    ("Polypeptide No. 26 (scFv, V domains shown, scFv) VH: QVQLVQSGAEVKKPGASVKVSCKASGYTFTENEMHWVRQAPGQGLEWMGWMNPNSGNTGYAQKFQGRVTMTRDTSTSTVYMELSSLRSEDTAVYYCAREGGDWPYYYMDVWGKGTTVTVSS VL: DIQMTQSPSSLSASVGDRVTITCQASQDIRNYLNWYQQKPGKAPKLLIYAASSLQSGVPSRFSGSGSGTDFTLTISSLQPEDFATYYCQQTSSTPLTFGPGTKVDIKR", "binds"),
]
